ASSAYED_SYSTEM: MELK (Homo sapiens)
Sequence (Q14680 whole entry, looked up): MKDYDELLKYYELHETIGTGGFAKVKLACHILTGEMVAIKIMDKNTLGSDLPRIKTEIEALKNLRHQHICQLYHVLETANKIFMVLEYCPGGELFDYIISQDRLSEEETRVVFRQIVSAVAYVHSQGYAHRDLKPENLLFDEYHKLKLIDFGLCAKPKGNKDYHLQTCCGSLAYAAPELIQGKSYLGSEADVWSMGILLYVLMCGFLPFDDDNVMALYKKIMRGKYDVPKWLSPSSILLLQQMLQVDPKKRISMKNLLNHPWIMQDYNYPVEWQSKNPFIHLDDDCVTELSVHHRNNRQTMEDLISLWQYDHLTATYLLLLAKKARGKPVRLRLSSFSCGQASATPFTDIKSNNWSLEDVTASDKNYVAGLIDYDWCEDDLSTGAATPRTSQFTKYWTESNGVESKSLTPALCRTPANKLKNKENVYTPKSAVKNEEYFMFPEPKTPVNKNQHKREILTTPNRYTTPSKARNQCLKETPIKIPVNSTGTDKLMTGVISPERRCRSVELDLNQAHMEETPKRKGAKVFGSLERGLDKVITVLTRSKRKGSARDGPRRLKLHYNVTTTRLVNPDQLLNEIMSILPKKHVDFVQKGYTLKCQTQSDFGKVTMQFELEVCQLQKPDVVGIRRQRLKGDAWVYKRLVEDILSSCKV
TEST: Kinase assay: MELK activity, phosphorylation of FITC-labeled histone H3 peptide measured by IMAP fluorescence polarization
Type: biochemical
ASSAY_CONTEXT: MELK kinase assay, IMAP fluorescence polarization, 50 micro-M ATP; read-out: IC50 (μM) (kinase assay)
Counter-ions that a name gives are not always drawn.
MEASURE_NAME: IC50 (µM)
Give bare numbers, in µM.

MOLECULE | ASSAYED_SYSTEM | MEASURE_NAME | READOUT_VALUE
CC(=O)c1cnc2ccc(-c3cc(Cl)c(O)c(Cl)c3)cc2c1Nc1cnn(C2CCN(C)C2)c1 (centres unmarked) [Example 814, dihydrochloride] | MELK (Homo sapiens) | IC50 | 0.0009
COc1ccc2c(c1)CN(c1ccc3ncc(C(C)=O)c(N[C@H]4CC[C@H](CN(C)C)CC4)c3c1)C2=O | MELK (Homo sapiens) | IC50 | 1.2
CC(=O)c1cnc2ccc(-c3cc(Cl)c(O)c(Cl)c3)cc2c1N[C@H]1CCC[C@H](CCN(C)C)C1 [Example 861, hydrochloride] | MELK (Homo sapiens) | IC50 | 0.0032
CCC(=O)c1cnc2ccc(-c3cc(F)c(O)c(Cl)c3)cc2c1N[C@H]1CC[C@H](CN2CCCC2)CC1 | MELK (Homo sapiens) | IC50 | 0.0023

Report IC50 for each item below.
1. CC(=O)c1cnc2cc(C)c(-c3cc(Cl)c(O)c(Cl)c3)cc2c1Nc1ccc(N2CCN(C)CC2)nc1 [Example 866, hydrochloride]
2. CC(C)C(=O)c1cnc2ccc(-c3cc(F)c(O)c(Cl)c3)cc2c1N[C@H]1CC[C@H](N)CC1 [Example 937, dihydrochloride]
3. [2H]C([2H])([2H])N(C[C@H]1CC[C@H](Nc2c(C(C)=O)cnc3ccc(-c4cc(Cl)c(O)c(Cl)c4)cc23)CC1)C([2H])([2H])[2H] [Example 864, dihydrochloride]
4. CC(=O)c1cnc2ccc(-c3cc(F)c(O)c(Cl)c3)cc2c1Nc1ccc(OCCN(C)C)nc1 [Example 848, hydrochloride]
5. CC(=O)c1cnc2ccc(-c3cc(F)c(O)c(Cl)c3)cc2c1N[C@H]1CCC[C@@H](CN(C)C)C1 [Example 826, hydrochloride]
6. CCC(=O)c1cnc2ccc(-c3cc(Cl)c(O)c(Cl)c3)cc2c1Nc1ccc(N2CCC(N(C)C)C2)nc1 (centres unmarked)

0.34
0.0054
0.0011
0.011
0.0083
0.0039

Count: 2. Required value per item: IC50.
1. CC(=O)c1cnc2cc(C)c(-c3cc(F)c(O)c(Cl)c3)cc2c1Nc1ccc(CN(C)C)cc1 [Example 858, hydrochloride]
2. CC(=O)c1cnc2ccc(-c3cc(Cl)c(O)c(Cl)c3)cc2c1N[C@H]1CC[C@H](C(=O)N2CCN(C)CC2)CC1 [Example 898, hydrochloride]

0.2
0.0044
